Source listed as ChEMBL document CHEMBL1201862.

Tested on: MDA-N
Test: NCI tumour cell line growth inhibition, 48 h
Calls of active or inactive are those of the source. Cut-off read from the data, not from the text of the source: active = GI50 up to about 1.1 µM and inactive = higher.
recorded-endpoint: GI50

In [3]: df
Out[3]:
                                   compound  study_system  recorded_endpoint                  val
0  COc1cc(C2S/C(=C/c3ccccc3)C(=O)N2c2cccc(NC(C)=O)c2)cc(OC)c1OC (centres undefined)         MDA-N               GI50   26.7 µM (inactive)
1  CC(C)=NN/C(=N\c1ccc(Cl)cc1)NS(=O)(=O)c1cc(Cl)c(Oc2ccc([N+](=O)[O-])cc2Cl)c(Cl)c1         MDA-N               GI50  > 100 µM (inactive)
2  C[C@]12CC[C@H]3[C@@H](CC=C4C[C@@H](N5CCCC5)CC[C@@]43C)[C@@H]1C[C@H](N1CCOCC1)[C@@H]2O         MDA-N               GI50  > 100 µM (inactive)

Note: attention shifts to another entry.
# input Look up and state reported GI50 for `CC(C)(C)c1ccc(-c2nc3ccc([N+](=O)[O-])cc3c(=O)o2)cc1`
# output 31.6 µM (inactive)

* * *

Test system: RXF 631
Assay: NCI tumour cell line growth inhibition, 48 h
Activity calls are given as the source filed them. No stated cut-off is given here; in the data, active = GI50 up to about 1.1 µM and inactive = higher.
Kindly supply the reported GI50 values for the records listed here.

Sample answers from the record:
In [3]: df
Out[3]:
                                   compound  recorded_endpoint                  val
0        CC(C)(C)c1ccccc1NS(=O)(=O)c1ccccc1               GI50  > 100 µM (inactive)
1  C/C=C(/CCC1NCCC2c3ccccc3NC12)[Si](C)(C)C (centres undefined)               GI50   10.4 µM (inactive)
2  COc1cc(/C=C2\CCC(CN(C)C)C2=O)ccc1OC(=O)c1ccccc1 (centres undefined)               GI50   11.2 µM (inactive)
3  CCOC(=O)[C@H]1Nc2ccc(Cl)cc2[C@H]2c3ccccc3O[C@H]21               GI50  > 100 µM (inactive)
4                  C/C(Cc1ccccc1)=N\NC(N)=S               GI50  > 100 µM (inactive)

Value sought for every listed compound: GI50.
1. O=C(O)C1=C(CO)Oc2cc3c(cc2C1c1ccc2c(c1)OCO2)OCO3 (centres undefined)
2. COc1cc2nc(NCCCCCNC(=O)c3ccco3)nc(N)c2cc1OC

# output
> 100 µM (inactive)
26.1 µM (inactive)

Value sought for every listed compound: GI50.
1. C[C@]12CCC(=O)C[C@H]1CCC(O)[C@@H]2Br (some centres undefined)
2. CC(C)c1c2[nH]c3ccccc3c2c(C(C)C)c2[nH]c3ccccc3c12
3. O=C(NNC(=O)/C(=C/c1cccc([N+](=O)[O-])c1)NC(=O)c1ccccc1)Nc1ccc(Cl)cc1
4. Cc1ccc(NC(=O)CCc2nc(N)nc(N)c2-c2ccccc2)cc1C
5. CCOc1ccccc1/N=N/c1ccc2oc(=O)c(C(=O)Nc3cccc(C)c3)cc2c1

# output
1: > 100 µM (inactive); 2: > 100 µM (inactive); 3: 10.2 µM (inactive); 4: > 100 µM (inactive); 5: 34.5 µM (inactive)

Value sought for every listed compound: GI50.
1. Nc1ncnc2c1ncn2[C@]1(CO)C=C(CO)C(O)C1O (some centres undefined)
2. Cn1c(=O)c(/N=N/c2c(=O)n(C)c(=O)n3c2[nH]c2ccccc23)c2[nH]c3ccccc3n2c1=O

# output
1: > 100 µM (inactive); 2: 85.7 µM (inactive)
